# Tested on: VMAT-2
# Construct: from tissue; host or cells: living rats; organs dissected after iv injection
# protocol-details: Blocking of pancreatic signal by DTBZ in rats
# Format: in vivo
# assay-setup: rat, pancreas, 30 min Control, read-out: Pancreas
quantity-kind: tissue uptake at 30 min (%ID/g)
Only the number, expressed in %ID/g, is required.

Data request: Sample COc1cc2c(cc1OCCC[18F])CCN1C[C@@H](CC(C)C)[C@H](O)C[C@H]21 [[^18F]-(+)-6b] — what was its tissue uptake at 30 min?
Data returned: 4.39

###

# protocol-details: Blocking of pancreatic signal by DTBZ in rats
# Type: in vivo
# assay-setup: rat, hippocampus, 30 min Control, read-out: Regional Brain Distribution Hippocampus
quantity-kind: tissue uptake at 30 min (%ID/g)
Only the number, expressed in %ID/g, is required.

Data request: Sample COc1cc2c(cc1OCCC[18F])CCN1C[C@@H](CC(C)C)[C@H](O)C[C@H]21 [[^18F]-(+)-6b] — what was its tissue uptake at 30 min?
Data returned: 0.54

###

# Test system: VMAT-2
# Construct: from tissue; host or cells: living rats; organs dissected after iv injection
# protocol-details: Blocking of pancreatic signal by DTBZ in rats
# Format: in vivo
# assay-setup: rat, cerebellum, 30 min Blocking, DTBZ 3.8 mg/kg pretreatment, read-out: Regional Brain Distribution Cerebellum
quantity-kind: tissue uptake at 30 min (%ID/g)
Only the number, expressed in %ID/g, is required.

Data request: Sample COc1cc2c(cc1OCCC[18F])CCN1C[C@@H](CC(C)C)[C@H](O)C[C@H]21 [[^18F]-(+)-6b] — what was its tissue uptake at 30 min?
Data returned: 0.25

###

# protocol-details: Blocking of pancreatic signal by DTBZ in rats
# Format: in vivo
# assay-setup: rat, striatum, 30 min Blocking, DTBZ 3.8 mg/kg pretreatment, read-out: Regional Brain Distribution Striatum
quantity-kind: tissue uptake at 30 min (%ID/g)
Only the number, expressed in %ID/g, is required.

Data request: Sample COc1cc2c(cc1OCCC[18F])CCN1C[C@@H](CC(C)C)[C@H](O)C[C@H]21 [[^18F]-(+)-6b] — what was its tissue uptake at 30 min?
Data returned: 0.27

###

# Test system: VMAT-2
# Construct: from tissue; host or cells: living rats; organs dissected after iv injection
# protocol-details: Blocking of pancreatic signal by DTBZ in rats
# Assay type: in vivo
# assay-setup: rat, pancreas, 30 min Blocking, DTBZ 3.8 mg/kg pretreatment, read-out: Pancreas
quantity-kind: tissue uptake at 30 min (%ID/g)
Only the number, expressed in %ID/g, is required.

Data request: Sample COc1cc2c(cc1OCCC[18F])CCN1C[C@@H](CC(C)C)[C@H](O)C[C@H]21 [[^18F]-(+)-6b] — what was its tissue uptake at 30 min?
Data returned: 3.1

###

# protocol-details: Blocking of pancreatic signal by DTBZ in rats
# Format: in vivo
# assay-setup: rat, hypothalamus, 30 min Blocking, DTBZ 3.8 mg/kg pretreatment, read-out: Regional Brain Distribution Hypothalamus
quantity-kind: tissue uptake at 30 min (%ID/g)
Only the number, expressed in %ID/g, is required.

Data request: Sample COc1cc2c(cc1OCCC[18F])CCN1C[C@@H](CC(C)C)[C@H](O)C[C@H]21 [[^18F]-(+)-6b] — what was its tissue uptake at 30 min?
Data returned: 0.25
